Item-by-item account of EC50
# SUBJECT_OF_TEST: Endoribonuclease toxin MazF (Escherichia coli K-12, UniProt P0AE70)
# Sequence (P0AE70 whole entry): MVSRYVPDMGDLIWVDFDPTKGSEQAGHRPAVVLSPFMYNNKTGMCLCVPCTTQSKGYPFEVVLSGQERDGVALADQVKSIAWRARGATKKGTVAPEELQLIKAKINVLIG
# EXPERIMENT_NOTES: substrate-only fluorescence increase artefacts – biochemical, single-stranded RNase substrate, counter-screen for MazEF activator project, dose response (AID 588502)
# Format: functional
Calls of active or inactive are those of the source.

Take a look at these entries with their results.
* Cc1nn(-c2ccccc2)c(O)c1/C=N/c1ccc2[nH]c(O)nc2c1 | > 99 µM (inactive)
* O=c1oc(/C=C/c2ccco2)nc2sc3c(c12)CCC3 | > 99 µM (inactive)
* CC1CC(=O)N(c2ccc(NCc3ccc(Cl)cc3)c([N+](=O)[O-])c2)C1=O (stereo not given) | > 99 µM (inactive)

Provide the documented EC50 with Endoribonuclease toxin MazF (Escherichia coli K-12, UniProt P0AE70) as the system for O=C1C(Cl)=C(NCCc2ccccc2)C(=O)N1CCc1ccccc1
> 99 µM (inactive)

Quick check: EC50 on Endoribonuclease toxin MazF (Escherichia coli K-12, UniProt P0AE70), item N#C/C(=C\c1ccc(-c2ccc(F)cc2)o1)C(=O)Nc1nc(-c2cccs2)cs1 ?
27.2 µM (inactive)

====

# SUBJECT_OF_TEST: Leucine aminopeptidase (Plasmodium falciparum 3D7, UniProt Q8IL11)
# Sequence (Q8IL11 whole entry): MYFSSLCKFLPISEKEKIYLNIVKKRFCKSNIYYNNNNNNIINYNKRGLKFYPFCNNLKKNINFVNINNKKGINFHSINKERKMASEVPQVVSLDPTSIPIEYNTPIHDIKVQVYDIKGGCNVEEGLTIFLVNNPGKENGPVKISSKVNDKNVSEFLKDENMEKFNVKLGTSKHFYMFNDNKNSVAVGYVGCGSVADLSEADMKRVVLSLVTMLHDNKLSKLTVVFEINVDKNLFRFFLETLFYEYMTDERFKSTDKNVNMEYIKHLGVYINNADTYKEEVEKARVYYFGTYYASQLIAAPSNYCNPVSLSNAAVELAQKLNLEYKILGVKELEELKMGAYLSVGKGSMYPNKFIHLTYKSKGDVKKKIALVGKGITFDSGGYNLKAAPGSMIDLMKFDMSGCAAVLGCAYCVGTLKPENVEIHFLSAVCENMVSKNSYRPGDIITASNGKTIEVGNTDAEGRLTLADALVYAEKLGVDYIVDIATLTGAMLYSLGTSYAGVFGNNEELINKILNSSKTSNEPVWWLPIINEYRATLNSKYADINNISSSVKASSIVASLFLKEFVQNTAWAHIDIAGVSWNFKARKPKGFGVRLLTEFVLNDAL
# EXPERIMENT_NOTES: P. falciparum M17LAP inhibitors, primary screen, biochemical, fluorogenic H-Leu-NHMec substrate, 1536-well (AID 1619)
# Assay type: functional
Active and inactive are the calls of the source.
MEASUREMENT_TYPE: IC50

- CN(C)c1ccc(/C=N/NC(=O)c2nonc2N)cc1[N+](=O)[O-]: 56.1 µM (active)

I would be grateful if you could share the reported IC50 for O=C(O)CC(Cc1ccccc1)C(=O)Nc1ccc([N+](=O)[O-])cc1 (stereo not drawn) .
15.7 µM (active)

If you can, please state the reported IC50 value of N#Cc1c(NC(=O)Cn2cnc3ccccc3c2=O)oc(-c2ccccc2)c1-c1ccccc1 .
1.47 µM (active)

====

# EXPERIMENT_NOTES: A Cell Based Secondary Assay To Explore Cytotoxicity of Compounds that Sensitize Mycobacterium Tuberculosis to Beta-Lactam Antibiotics.
# Type: functional
Active and inactive are the calls of the source.
MEASUREMENT_TYPE: CC50

# query: CC50 of entry O=C(N/N=C/c1ccc([N+](=O)[O-])o1)c1ccccc1-n1cccc1
32.1 µM (active)

Name the recorded CC50 for CCSc1nc2ccccc2c(=O)n1CCc1ccc(OC)c(OC)c1 .
> 40 µM (active)

// query CC50 value for entry NC(=O)CC(NC(=O)Cc1ccc(Br)cc1)c1ccc(NC2CCCCCC2)c([N+](=O)[O-])c1 (centres undefined)
> 40 µM (active)

Quick check: CC50 of COc1cc(CNCCO)cc(Br)c1OCc1ccccc1Cl ?
20.3 µM (active)

====

# SUBJECT_OF_TEST: UniProt O75030
# Sequence (O75030 whole entry): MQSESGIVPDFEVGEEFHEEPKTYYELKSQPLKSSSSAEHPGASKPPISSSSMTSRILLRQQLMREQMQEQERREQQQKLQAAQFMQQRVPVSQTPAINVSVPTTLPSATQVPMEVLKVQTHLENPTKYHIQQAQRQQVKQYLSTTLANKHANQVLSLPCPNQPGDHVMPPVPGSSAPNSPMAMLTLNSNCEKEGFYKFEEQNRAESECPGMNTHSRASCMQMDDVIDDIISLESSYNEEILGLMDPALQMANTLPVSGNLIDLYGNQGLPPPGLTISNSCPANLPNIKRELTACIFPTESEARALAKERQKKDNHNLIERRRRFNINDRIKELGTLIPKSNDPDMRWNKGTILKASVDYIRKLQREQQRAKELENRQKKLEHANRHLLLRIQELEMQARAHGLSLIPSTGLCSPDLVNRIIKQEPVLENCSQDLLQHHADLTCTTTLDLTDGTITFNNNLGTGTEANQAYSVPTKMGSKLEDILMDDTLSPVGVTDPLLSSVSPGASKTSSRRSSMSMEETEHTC
# EXPERIMENT_NOTES: reducers of TRPM1 reporter luminescence, concentration series – cell-based, SK-MEL-5, cherry-picked, set 3, MITF inhibitor project, dose response (AID 493073);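 also: SK-MEL-5 melanoma cells with luciferase driven by the MITF target TRPM1 promoter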
# Format: functional
Activity calls are given as the source filed them.
Below, each of the molecules is paired with its reported AC50 value.

• COc1cc2c(c(OC)c1OC)-c1ccc(N(C)CC(OC)OC)c(=O)cc1[C@@H](NC(C)=O)CC2 = 2.04 µM (active)
• CC(C)C1CC(CCNCc2ccc(N(C)C)cc2)(c2ccccc2)CCO1 (centres undefined) = 11.1 µM (active)
• CC1(C)Cc2c(sc(NC(=O)c3ccc4ncsc4c3)c2C(N)=O)C(C)(C)N1 = 10.1 µM (active)
• Cc1ccc(C)c(-n2c3nc(=O)[nH]c(=O)c-3cc3cc([N+](=O)[O-])ccc32)c1 = 8.42 µM (active)
• O=C1Nc2cc(C(=O)NCCN3CCCCCC3)ccc2S/C1=C\c1ccccc1 = 9.78 µM (active)

Notebook entry, UniProt O75030 assay: AC50 of O=C(N/N=C/c1ccc([N+](=O)[O-])o1)c1ccccc1-n1cccc1 = ?
17.1 µM (active)

Request body: readout AC50, system UniProt O75030, query Cc1c(C#N)c(NC(=O)CCl)n(Cc2ccc(F)cc2)c1C . Return the value.
7.16 µM (active)

# value lookup — system UniProt O75030, readout AC50, item Cc1cc(C(C)(C)C)cc(C)c1C[n+]1c2n(c3ccc(C(F)(F)F)cc31)CCCCC2
7.55 µM (active)

Tell me reported AC50 for COc1cc2c(c(OC)c1OC)-c1ccc(OC)c(=O)cc1C(NC(C)=O)CC2 (centres undefined) , tested with UniProt O75030.
0.056 µM (active)

====

// reported IC50 per item
Target sequence: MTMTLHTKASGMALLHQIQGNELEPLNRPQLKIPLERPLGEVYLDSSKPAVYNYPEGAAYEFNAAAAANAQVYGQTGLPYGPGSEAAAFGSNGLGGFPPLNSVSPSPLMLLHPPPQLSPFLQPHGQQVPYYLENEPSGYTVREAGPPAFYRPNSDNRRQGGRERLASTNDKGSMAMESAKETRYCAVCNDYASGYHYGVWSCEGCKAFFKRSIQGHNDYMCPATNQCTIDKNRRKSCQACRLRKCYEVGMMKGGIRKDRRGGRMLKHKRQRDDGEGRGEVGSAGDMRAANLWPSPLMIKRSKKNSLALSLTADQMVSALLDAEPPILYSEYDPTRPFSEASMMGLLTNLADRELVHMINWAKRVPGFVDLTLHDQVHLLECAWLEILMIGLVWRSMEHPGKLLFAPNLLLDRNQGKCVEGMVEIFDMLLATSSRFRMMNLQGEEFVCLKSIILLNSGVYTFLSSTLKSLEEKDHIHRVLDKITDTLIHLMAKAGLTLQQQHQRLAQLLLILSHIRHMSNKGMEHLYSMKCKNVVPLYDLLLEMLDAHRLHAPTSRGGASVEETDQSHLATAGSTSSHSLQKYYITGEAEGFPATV
Activity calls are given as the source filed them.

- COc1ccc(-c2nc(C(N)=O)c3[nH]c(=O)n(-c4cccc(Cl)c4)c3n2)cc1OC: 6.26 µM (active)
- COc1ccc(NC2=NC(=O)S/C2=C\c2ccc(N(C)C)cc2)cc1: 33.3 µM (not active)
- CC(=O)c1c(C)[nH]c(C(=O)COc2ccc(C#N)cc2)c1C: 34 µM (not active)

For the compound shown here, CCOC(=O)C1CCCN(C(=O)c2cc3ncc(Br)cn3n2)C1 (stereo not drawn) , give the reported IC50.
20.7 µM (active)

====

# SUBJECT_OF_TEST: Caspase-3 (Homo sapiens)
# EXPERIMENT_NOTES: SAR Analysis of small molecule inhibitors of Sentrin-specific proteases (SENPs) using a Caspase-3 Selectivity assay. [Related pubchem assays (depositor defined):AID2540, AID2599, AID434973, AID489001]
# Assay type: functional
Activity calls are given as the source filed them.
MEASUREMENT_TYPE: IC50

Before answering, review these 3 worked examples.
- Cc1ccsc1C(=O)Nc1nc2ccc(Cl)cc2s1: 0.48 µM (active)
- Fc1ccc(COc2ccc(C(=S)N3CCCC3)cc2)cc1: 1.31 µM (active)
- COc1ccc(C2C(C#N)=C(N)Oc3c2c(C)nn3-c2ccccc2)cc1 (centres undefined): > 99 µM (inactive)

Consider now this further compound.
Bench note: what IC50 did C(=C\c1nc(-c2ccc(N3CCOCC3)cc2)no1)/c1ccccc1 show?
> 99 µM (inactive)

====

# EXPERIMENT_NOTES: Luminescence Cell-Based Dose Confirmation HTS to Identify Activators of 5'UTR Stem-Loop Driven Alpha-Synuclein mRNA Translation in H4 Neuroglioblastoma Cells. [Related pubchem assays: 1829 (Project Summary), 1814 (Primary HTS)]
# Assay type: functional
Activity calls are given as the source filed them.
MEASUREMENT_TYPE: EC50

Some solved entries appear below for comparison.
- O=C(CC1Sc2ccccc2NC1=O)c1ccc(Br)cc1 (stereo unspecified): 5.6 µM (active)
- CCOC(=O)C1(Cc2cccc(OC)c2)CCCN(C(=O)CCc2cccnc2)C1 (stereo unspecified): 15.2 µM (active)
- Cc1ccc(S(=O)(=O)NC(=O)Nc2ccc(N(C)C)cc2)cc1: 7.5 µM (active)
- Cc1sc2c(c1C)CN(CCN1CCOCC1)CN2C(=O)c1ccccc1: 19.9 µM (active)

Request the reported EC50 associated with Nc1cc(C2CCCC2)nn1-c1ccccc1
0.13 µM (active)

Which EC50 is reported for this compound? C/C(=N\OC(=O)NC1CCCCC1)c1sc(-c2ccccc2)nc1C
22 µM (active)

src = ChEMBL document CHEMBL1201862
